Measured On: PTGER2 (EP2) (Homo sapiens (Human))
Test Details: hEP2 b-arrestin assay (PathHunter HEK 293 PTGER2 b-arrestin cells)
Type: cell-based
Run Conditions: antagonistic activity on hEP2; mean where measured multiple times
Note to self: IC50 under 20 nM means MET, ties and anything higher get NOT MET.

>>> print(df.to_string())
                                    compound  label_class
 0  Cc1n[nH]c2cc(-c3cc(NCCn4c(C)cc5c(C)cc(F)cc54)ncn3)ccc12      NOT MET
 1  CNc1cc(-c2cc(NCCn3c(C)cc4c(OC)ccc(Cl)c43)ncn2)ccc1C(=O)O          MET
 2  Cc1cc(F)c(F)c2c1cc(C)n2CCNc1cc(-c2ccc(-c3c[nH]cn3)cc2)ncn1      NOT MET
 3  COc1ccc(F)c2c1cc(C)n2CCNc1cc(-c2ccc3ccncc3c2)ncn1          MET
 4  CCOc1cc(-c2cc(NCCn3c(C)cc4c(C)ccc(F)c43)ncn2)sc1C(=O)O          MET
 5  CCOc1cc(-c2cc(NCCn3c(C)cc4c(OC)ccc(Cl)c43)ncn2)cc(C)c1C(=O)O      NOT MET
 6  COc1cccc2c1cc(C)n2CCNc1cc(-c2ccc3c(c2)CCN3)ncn1          MET
 7  Cc1cc(-c2cc(NCCn3c(C)cc4c(C)ccc(F)c43)ncn2)ccc1CO      NOT MET
 8  COc1cc(F)cc2c1cc(C)n2CCNc1cc(-c2ccc(-c3ccn(C)n3)cc2)ncn1          MET
 9  COc1cccc2c1cc(C)n2CCNc1cc(-c2ccc3c(c2)C(C)NC3=O)ncn1 (racemic)          MET
10  Cc1cc2c(Cl)ccc(Cl)c2n1CCNc1cc(-c2ccc(C(=O)O)c(SCC(C)C)c2)ncn1      NOT MET
11  COc1cccc2c1cc(C)n2CCNc1cc(-c2ccc(-c3c[nH]cn3)cc2)ncn1          MET
12  Cc1cc(F)cc2c1cc(C)n2CCNc1cc(-c2ccc3c(C(=O)O)n[nH]c3c2)ncn1      NOT MET
13  COc1cccc2c1cc(C)n2CCNc1cc(-c2cc(C)c(C(=O)O)s2)ncn1          MET
14  COc1ccc(F)c2c1cc(C)n2CCNc1cc(-c2ccc(C3(N)CC3)cc2)ncn1      NOT MET
15  Cc1cc(Cl)cc2c1cc(C)n2CCNc1cc(-c2ccc(C(=O)O)c(OC(F)F)c2)ncn1      NOT MET
16  COc1ccc(F)c2c1cc(C)n2CCNc1cc(-c2ccc(C(=O)O)c(C3CC3)c2)ncn1          MET
17  Cc1cc(F)cc2c1cc(C)n2CCNc1cc(-c2ccc3cnn(C)c3c2)ncn1      NOT MET
18  COc1ccc(F)c2c1cc(C)n2CCNc1cc(-c2ccc(C(=O)O)c(C)c2)ncn1      NOT MET
19  Cc1cc(-c2cc(NCCn3c(C)cc4c(C)ccc(F)c43)ncn2)ccc1S(N)(=O)=O      NOT MET
20  Cc1cc(F)cc2c1cc(C)n2CCNc1cc(-c2ccc(-c3c[nH]cn3)cc2)ncn1      NOT MET
21  COc1ccc(F)c2c1cc(C)n2CCNc1cc(-c2ccc(S(C)(=O)=O)c(F)c2)ncn1      NOT MET
22  Cc1nnc(-c2ccc(-c3cc(NCCn4c(C)cc5c(C)ccc(F)c54)ncn3)cc2F)o1      NOT MET
23  COc1ccc(F)c2c1cc(C)n2CCNc1cc(-c2ccc(S(=O)(=O)O)cc2)ncn1          MET
24  COc1ccc(F)c2c1cc(C)n2CCNc1cc(-c2cc(F)c(C(=O)O)s2)ncn1          MET
25  Cc1cc(-c2cc(NCCn3c(C)cc4c(C)ccc(F)c43)ncn2)cc(F)c1C(=O)O          MET
26  COc1cccc2c1cc(C)n2CCNc1cc(-c2ccc(CO)c(C)c2)ncn1          MET
27  CCc1cc(-c2cc(NCCn3c(C)cc4c(OC)cccc43)ncn2)sc1C(=O)O          MET
28  COc1cccc2c1cc(C)n2CCNc1cc(-c2ccc3nc(C)oc3c2)ncn1      NOT MET
29  CCNc1cc(-c2cc(NCCn3c(C)cc4c(F)ccc(F)c43)ncn2)ccc1C(=O)O          MET
30  COc1cccc2c1cc(C)n2CCNc1cc(-c2ccc(C3(C(=O)O)CC3)c(F)c2)ncn1      NOT MET

---

Measured On: UniProt P43116
Test Details: hEP2 b-arrestin assay (PathHunter HEK 293 PTGER2 b-arrestin cells)
Type: cell-based
Run Conditions: hEP2 b-arrestin assay (values without asterisk)
pIC50: −log10 of the molar value.
Entries annotated with measured pIC50
Assay Metric: pIC50

>>> print(df.to_string())
                                   compound     measured_on  quantitative_result
0  CCOc1cc(-c2cc(NCCn3c(C)c(F)c4ccccc43)ncn2)sc1C(=O)O [Example 875]  UniProt P43116                 8.40
1  COc1ccc(F)c2c1cc(C#N)n2CCNc1cc(-c2ccc(-c3nc(C)[nH]c3C)cc2)ncn1 [Example 821]  UniProt P43116                 8.40
2  COc1ccc(F)c2c1cc(C)n2CCNc1cc(-c2cc(O)c(C(=O)O)s2)ncn1 [Example 799]  UniProt P43116                 7.68
3  CCOc1cc(-c2cc(NCCn3c(C)cc4c(OC)cccc43)ncn2)ccc1-c1noc(=O)[nH]1 [Example 881]  UniProt P43116                 8.30
4  COc1ccc(F)c2c1cc(C#N)n2CCNc1cc(-c2ccc(-c3cc(O)no3)cc2)ncn1 [Example 852]  UniProt P43116                 7.92
5  CCOc1cc(-c2cc(NCCn3c(C#N)cc4c(OC)ccc(F)c43)ncn2)ccc1O [Example 899]  UniProt P43116                 8.30
6  COc1ccc(F)c2c1cc(C#N)n2CCNc1cc(-c2ccc3nn[nH]c3c2)ncn1 [Example 985]  UniProt P43116                 7.60
7  COC(=O)c1ccc(-c2cc(NCCn3c(C#N)cc4c(OC)ccc(F)c43)ncn2)cc1F [Example 999]  UniProt P43116                 7.52

---

Measured On: PTGER2 (EP2) (Homo sapiens (Human), UniProt P43116)
Sequence (P43116 whole entry): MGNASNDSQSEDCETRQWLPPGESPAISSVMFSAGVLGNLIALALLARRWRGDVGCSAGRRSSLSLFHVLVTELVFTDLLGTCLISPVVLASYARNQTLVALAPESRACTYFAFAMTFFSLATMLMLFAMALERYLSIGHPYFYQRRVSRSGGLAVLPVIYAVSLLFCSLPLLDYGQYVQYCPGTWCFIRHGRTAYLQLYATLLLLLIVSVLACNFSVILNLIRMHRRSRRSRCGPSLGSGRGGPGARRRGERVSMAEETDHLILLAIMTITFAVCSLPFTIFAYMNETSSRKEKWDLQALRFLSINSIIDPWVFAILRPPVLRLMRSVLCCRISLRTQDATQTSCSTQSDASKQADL
Test Details: hEP2 b-arrestin assay (PathHunter HEK 293 PTGER2 b-arrestin cells)
Assay type: cell-based
Run Conditions: antagonistic activity on hEP2; mean where measured multiple times
Quick reference: IC50 of the listed items.
Assay Metric: IC50 (nM)

In [3]: df
Out[3]:
                                    compound  assay_metric  quantitative_result
 0  CCOc1cc(-c2cc(NCCn3c(C)cc4c(OC)ccc(C)c43)ncn2)sc1C(=O)O          IC50                   12
 1  CCNc1cc(-c2cc(NCCn3c(C)cc4cccc(C#N)c43)ncn2)ccc1C(=O)O          IC50                  111
 2  CCc1cc(-c2cc(NCCn3c(C)cc4c(C)cc(F)cc43)ncn2)ccc1C(=O)O          IC50                   41
 3  COc1ccc(F)c2c1cc(C)n2CCNc1cc(-c2cc(Cl)c(C(=O)O)c(Cl)c2)ncn1          IC50                   19
 4  CCNc1cc(-c2cc(NCCn3c(C)cc4c(C)cc(F)cc43)ncn2)ccc1C(=O)O          IC50                    2
 5  CCC1NC(=O)c2ccc(-c3cc(NCCn4c(C)cc5c(C)ccc(F)c54)ncn3)cc21 (racemic)          IC50                   19
 6  CCc1cc(-c2cc(NCCn3c(C)cc4c(C)ccc(F)c43)ncn2)cc(F)c1C(=O)O          IC50                   33
 7  CCOc1cc(-c2cc(NCCn3c(C)cc4c(C)cccc43)ncn2)ccc1C(=O)O          IC50                   16
 8  COc1ccc(F)c2c1cc(C)n2CCNc1cc(-c2ccc(C(N)=O)cc2)ncn1          IC50                   21
 9  COc1ccc(Cl)c2c1cc(C)n2CCNc1cc(-c2ccc3cnn(C)c3c2)ncn1          IC50                  193
10  CCOc1cc(-c2cc(NCCn3c(C)cc4cc(Cl)cc(F)c43)ncn2)sc1C(=O)O          IC50                   13
11  Cc1c(F)cc2c(cc(C)n2CCNc2cc(-c3ccc(C(=O)O)c(CC(C)C)c3)ncn2)c1F          IC50                  142
12  COc1ccc(F)c2c1cc(C)n2CCNc1cc(-c2ccc(-c3csc(C)n3)cc2)ncn1          IC50                   72
13  CCOc1cc(-c2cc(NCCn3c(C#N)cc4c(C)cc(F)cc43)ncn2)ccc1C(=O)O          IC50                   24
14  Cc1ccc(F)c2c1cc(C)n2CCNc1cc(-c2ccc3ccncc3c2)ncn1          IC50                   54
15  COc1cccc2c1cc(C)n2CCNc1cc(-c2ccc(C(=O)O)c(C3CC3)c2)ncn1          IC50                    6
16  CSc1cc(-c2cc(NCCn3c(C)cc4c(Cl)ccc(Cl)c43)ncn2)cc(Cl)c1C(=O)O          IC50                   16
17  COc1cc(F)cc2c1cc(C)n2CCNc1cc(-c2ccc3c(c2)CC(=O)N3)ncn1          IC50                   54
18  Cc1ccc(F)c2c1cc(C)n2CCNc1cc(-c2cc(Br)c(C(=O)O)cc2F)ncn1          IC50                  128
19  CCCc1cc(-c2cc(NCCn3c(C)cc4c(C)ccc(F)c43)ncn2)ccc1C(=O)O          IC50                   16
20  Cc1cc(-c2ccc(-c3cc(NCCn4c(C)cc5c(C)cc(F)cc54)ncn3)cc2)n[nH]1          IC50                   18
21  CSc1cc(-c2cc(NCCn3c(C)cc4c(Cl)ccc(Cl)c43)ncn2)ccc1C(=O)O          IC50                    9
22  COc1cc(-c2cc(NCCn3c(C)cc4c(OC)cccc43)ncn2)ccc1CO          IC50                    5
23  COc1ccc(F)c2c1cc(C)n2CCNc1cc(-c2ccc3nc(C)oc3c2)ncn1          IC50                  115
24  Cc1ccc(F)c2c1cc(C)n2CCNc1cc(-c2ccc(C(=O)O)c(N)c2)ncn1          IC50                  101
25  CCc1cc(-c2cc(NCCn3c(C)cc4c(F)ccc(F)c43)ncn2)ccc1C(=O)O          IC50                    5
26  Cc1sc(N)nc1-c1ccc(-c2cc(NCCn3c(C)cc4c(C)ccc(F)c43)ncn2)cc1          IC50                   19
27  COc1ccc(F)c2c1cc(C)n2CCNc1cc(-c2ccc3c(c2)CNC3=O)ncn1          IC50                    7
28  Cc1ccc(F)c2c1cc(C)n2CCNc1cc(-c2ccc(CO)c(F)c2)ncn1          IC50                   42
29  COc1cc(F)cc2c1cc(C)n2CCNc1cc(-c2ccc(N3CCCC3=O)cc2)ncn1          IC50                  320
30  CCCc1cc(-c2cc(NCCn3c(C)cc4c(OC)cccc43)ncn2)ccc1C(=O)O          IC50                    5
31  CCc1cc(-c2cc(NCCn3c(C)cc4c5c(cc(Cl)c43)OCO5)ncn2)ccc1C(=O)O          IC50                   12
